target: T1, IFN-αWA (human, UniProt P05015 24-189); assay: ProteOn, one antigen concentration
T1 construct: also called IFN-α16; alpha WA
Parameter: Kd (nM)
Write the value in nM as a bare number.

# get_value(readout='Kd', item= IFWM3319 (antibody, V domains shown, VH IFWH591, VL IFWL1041; converted mAb; also called IFWB3054) VH: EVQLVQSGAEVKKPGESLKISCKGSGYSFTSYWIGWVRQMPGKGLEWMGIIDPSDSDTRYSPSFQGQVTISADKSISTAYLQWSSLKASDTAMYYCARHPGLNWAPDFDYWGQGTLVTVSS VL: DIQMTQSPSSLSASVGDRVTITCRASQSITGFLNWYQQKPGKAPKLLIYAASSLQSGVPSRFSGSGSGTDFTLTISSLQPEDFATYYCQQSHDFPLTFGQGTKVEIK )
0.107

How about this binder: IFWM3306 (antibody, V domains shown, VH IFWH591, VL IFWL1000; converted mAb; also called IFWB3041) VH: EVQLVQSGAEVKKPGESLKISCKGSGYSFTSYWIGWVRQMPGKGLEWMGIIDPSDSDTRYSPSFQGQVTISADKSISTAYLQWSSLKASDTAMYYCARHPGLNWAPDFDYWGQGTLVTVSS VL: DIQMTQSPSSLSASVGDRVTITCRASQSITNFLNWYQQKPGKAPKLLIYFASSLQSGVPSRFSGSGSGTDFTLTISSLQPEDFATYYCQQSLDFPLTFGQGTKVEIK
0.07

How about this binder: IFWM3309 (antibody, V domains shown, VH IFWH591, VL IFWL1006; converted mAb; also called IFWB3044) VH: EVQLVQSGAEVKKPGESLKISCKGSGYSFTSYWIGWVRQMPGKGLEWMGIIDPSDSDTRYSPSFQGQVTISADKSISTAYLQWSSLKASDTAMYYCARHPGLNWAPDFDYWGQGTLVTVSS VL: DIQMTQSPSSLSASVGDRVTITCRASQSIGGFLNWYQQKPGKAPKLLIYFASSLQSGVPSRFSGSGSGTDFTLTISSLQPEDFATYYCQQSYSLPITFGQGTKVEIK
0.139

How about this binder: IFWM3364 (antibody, V domains shown, VH IFWH624, VL IFWL1060; converted mAb; also called IFWB3099) VH: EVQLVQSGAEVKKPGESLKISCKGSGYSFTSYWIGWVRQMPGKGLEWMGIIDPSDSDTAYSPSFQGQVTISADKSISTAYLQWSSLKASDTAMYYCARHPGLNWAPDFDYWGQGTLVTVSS VL: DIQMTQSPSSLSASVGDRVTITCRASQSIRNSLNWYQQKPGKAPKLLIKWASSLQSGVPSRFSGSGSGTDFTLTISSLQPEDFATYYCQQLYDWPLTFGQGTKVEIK
0.118
